Hey, just so you know, these numbers are from patent US10968178B2.

Target: human IP6K2 (Homo sapiens, UniProt Q9UHH9)
Construct: human IP6K2 (1-426) gene; GST; made in house; host or cells: Sf-9 insect cells
Sequence (Q9UHH9 whole entry): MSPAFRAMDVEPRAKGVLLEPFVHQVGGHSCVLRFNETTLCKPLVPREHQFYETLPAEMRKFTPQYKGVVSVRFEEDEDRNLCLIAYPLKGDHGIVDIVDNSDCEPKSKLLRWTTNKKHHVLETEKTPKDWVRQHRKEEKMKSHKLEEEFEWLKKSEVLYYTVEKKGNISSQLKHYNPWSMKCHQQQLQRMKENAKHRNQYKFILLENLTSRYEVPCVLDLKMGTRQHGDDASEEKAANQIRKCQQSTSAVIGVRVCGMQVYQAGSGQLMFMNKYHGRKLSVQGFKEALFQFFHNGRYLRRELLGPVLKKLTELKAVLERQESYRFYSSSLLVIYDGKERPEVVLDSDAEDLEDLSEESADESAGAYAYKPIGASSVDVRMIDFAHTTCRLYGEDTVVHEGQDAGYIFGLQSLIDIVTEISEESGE
Assay: IP6K enzyme inhibitory assay (ADP-Glo Kinase Assay), human IP6K2
Assay type: biochemical
Conditions: compound concentration 0.1 μM; read-out: ADP-Glo method inhibitory rate (%) human IP6K2
Reported inhibition at 0.1 µM is given for each of the following molecules.

given_smiles	target_entity	inhibition at 0.1 µM
O=C(O)c1ccc2c(c1)[C@]1(CC[C@@H](Oc3ccc(Cl)cn3)CC1)C(=O)N2	human IP6K2 (Homo sapiens, UniProt Q9UHH9)	97%
O=C(O)c1ccc2c(n1)[C@]1(CC[C@H](Oc3c(F)cc(Cl)cc3F)CC1)C(=O)N2	human IP6K2 (Homo sapiens, UniProt Q9UHH9)	50%
N#Cc1ccc(O[C@H]2CC[C@@]3(CC2)C(=O)Nc2ccc(C(=O)O)cc23)c(Cl)c1	human IP6K2 (Homo sapiens, UniProt Q9UHH9)	97%
O=C(O)c1ccc2c(c1)[C@]1(CC[C@@H](Oc3cc(F)ccc3Cl)CC1)C(=O)N2	human IP6K2 (Homo sapiens, UniProt Q9UHH9)	95%
O=C(O)c1ccc2c(c1)[C@]1(CC[C@@H](Oc3ccccc3)CC1)C(=O)N2	human IP6K2 (Homo sapiens, UniProt Q9UHH9)	79%
COc1ccc(O[C@H]2CC[C@@]3(CC2)C(=O)Nc2ccc(C(=O)O)cc23)c(C#N)c1	human IP6K2 (Homo sapiens, UniProt Q9UHH9)	99%
O=C(O)c1ccc2c(c1)[C@]1(CC[C@@H](Oc3cc(C(F)(F)F)ccc3F)CC1)C(=O)N2	human IP6K2 (Homo sapiens, UniProt Q9UHH9)	96%
O=C(O)c1ccc2c(n1)[C@]1(CC[C@H](Oc3ccccc3Cl)CC1)C(=O)N2	human IP6K2 (Homo sapiens, UniProt Q9UHH9)	71%
